Ref: the supplement of paper PMC9112550

Test system: Escherichia coli TOP10
procedure-text: shrunken log2 fold change of peptide-encoding DNA abundance (4.5 h post-induction vs induction); higher = less antimicrobial activity (less host growth inhibition)
experimental-setup: time post-induction: 4.5 h; library: site-saturation at positions 5, 18, 19, 20
Label Y for high-side shrunken log2 fold change (at or above 0.003) and N for low-side shrunken log2 fold change (below it).

// below: answered sequences
RRIRFRPPRLPRPRPRPVNDPRP | N
RRIRRRPPRLPRPRPRPVMLPRP | N
RRIRSRPPRLPRPRPRPYFLPRP | N
RRIRARPPRLPRPRPRPHRNPRP | Y
RRIRMRPPRLPRPRPRPYLHPRP | N

Dear colleague, could you confirm whether `RRIRCRPPRLPRPRPRPHCSPRP` has shrunken log2 fold change at or above 0.003?
N

Dear colleague, could you confirm whether `RRIRARPPRLPRPRPRPRFPPRP` has shrunken log2 fold change at or above 0.003?
Y

Dear colleague, could you confirm whether `RRIRKRPPRLPRPRPRPISLPRP` has shrunken log2 fold change at or above 0.003?
N

Dear colleague, could you confirm whether `RRIRPRPPRLPRPRPRPCGNPRP` has shrunken log2 fold change at or above 0.003?
N

Dear colleague, could you confirm whether `RRIRWRPPRLPRPRPRPEFKPRP` has shrunken log2 fold change at or above 0.003?
N

---

Tested on: Escherichia coli TOP10
procedure-text: shrunken log2 fold change of peptide-encoding DNA abundance (4.5 h post-induction vs induction); higher = less antimicrobial activity (less host growth inhibition)
experimental-setup: time post-induction: 4.5 h; library: site-saturation at positions 5, 18, 19, 20
Label TRUE for high-side shrunken log2 fold change (at or above 0.03) and FALSE for low-side shrunken log2 fold change (below it).

RRIRHRPPRLPRPRPRPEMTPRP | FALSE
RRIRSRPPRLPRPRPRPQDVPRP | FALSE
RRIRWRPPRLPRPRPRPWFEPRP | FALSE
RRIRMRPPRLPRPRPRPKTMPRP | FALSE
RRIRKRPPRLPRPRPRPLQVPRP | TRUE

Kindly consider the entry below.
Dear colleague, could you confirm whether `RRIRARPPRLPRPRPRPENEPRP` has shrunken log2 fold change at or above 0.03?
TRUE

---

Each record here notes measured shrunken log2 fold change.
Test system: Escherichia coli TOP10
procedure-text: shrunken log2 fold change of peptide-encoding DNA abundance (4.5 h post-induction vs induction); higher = less antimicrobial activity (less host growth inhibition)
experimental-setup: time post-induction: 4.5 h; library: site-saturation at positions 5, 18, 19, 20
API doc: respond with a numeric literal and nothing else, no unit.

Known shrunken log2 fold change results, listed for orientation:
RRIRWRPPRLPRPRPRPEVSPRP | 0.269
RRIRIRPPRLPRPRPRPVRCPRP | 0.201
RRIRHRPPRLPRPRPRPTQHPRP | -0.0131
RRIRFRPPRLPRPRPRPGLNPRP | 0.207
RRIRHRPPRLPRPRPRPVKRPRP | -0.226
RRIRKRPPRLPRPRPRPSGCPRP | -0.00526
RRIRHRPPRLPRPRPRPDNTPRP | -0.0928

Now consider the entry below.
Quick check: shrunken log2 fold change of `RRIRERPPRLPRPRPRPCFPPRP` ?
-0.166

---

System: Escherichia coli TOP10;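 also: peptides expressed intracellularly from a pBAD plasmid library in pooled LB shake-flask culture, induced with 0.3% L-arabinose, DNA abundance read by NGS, three biological replicates, DESeq2 with apeglm shrinkage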
procedure-text: shrunken log2 fold change of peptide-encoding DNA abundance (4.5 h post-induction vs induction); higher = less antimicrobial activity (less host growth inhibition)
experimental-setup: time post-induction: 4.5 h; library: site-saturation at positions 5, 18, 19, 20
Each record here notes measured shrunken log2 fold change.
API doc: respond with a numeric literal and nothing else, no unit.

Known shrunken log2 fold change results, listed for orientation:
RRIRNRPPRLPRPRPRPQGTPRP | -0.0148
RRIRTRPPRLPRPRPRPKWPPRP | 1.51
RRIRLRPPRLPRPRPRPCCIPRP | -0.0547

Look up shrunken log2 fold change with Escherichia coli TOP10 for this sequence: `RRIRFRPPRLPRPRPRPIHSPRP`
-0.895

Look up shrunken log2 fold change with Escherichia coli TOP10 for this sequence: `RRIRQRPPRLPRPRPRPSFEPRP`
-0.213

Look up shrunken log2 fold change with Escherichia coli TOP10 for this sequence: `RRIRMRPPRLPRPRPRPPICPRP`
0.292

Look up shrunken log2 fold change with Escherichia coli TOP10 for this sequence: `RRIRQRPPRLPRPRPRPYKFPRP`
-0.0369
